The measured values listed here are drawn from patent US8916565B2.

- SYSTEM NAME: human NaV subtype, like NaV 1.7 (Homo sapiens, UniProt Q15858)
- Sequence (Q15858 whole entry): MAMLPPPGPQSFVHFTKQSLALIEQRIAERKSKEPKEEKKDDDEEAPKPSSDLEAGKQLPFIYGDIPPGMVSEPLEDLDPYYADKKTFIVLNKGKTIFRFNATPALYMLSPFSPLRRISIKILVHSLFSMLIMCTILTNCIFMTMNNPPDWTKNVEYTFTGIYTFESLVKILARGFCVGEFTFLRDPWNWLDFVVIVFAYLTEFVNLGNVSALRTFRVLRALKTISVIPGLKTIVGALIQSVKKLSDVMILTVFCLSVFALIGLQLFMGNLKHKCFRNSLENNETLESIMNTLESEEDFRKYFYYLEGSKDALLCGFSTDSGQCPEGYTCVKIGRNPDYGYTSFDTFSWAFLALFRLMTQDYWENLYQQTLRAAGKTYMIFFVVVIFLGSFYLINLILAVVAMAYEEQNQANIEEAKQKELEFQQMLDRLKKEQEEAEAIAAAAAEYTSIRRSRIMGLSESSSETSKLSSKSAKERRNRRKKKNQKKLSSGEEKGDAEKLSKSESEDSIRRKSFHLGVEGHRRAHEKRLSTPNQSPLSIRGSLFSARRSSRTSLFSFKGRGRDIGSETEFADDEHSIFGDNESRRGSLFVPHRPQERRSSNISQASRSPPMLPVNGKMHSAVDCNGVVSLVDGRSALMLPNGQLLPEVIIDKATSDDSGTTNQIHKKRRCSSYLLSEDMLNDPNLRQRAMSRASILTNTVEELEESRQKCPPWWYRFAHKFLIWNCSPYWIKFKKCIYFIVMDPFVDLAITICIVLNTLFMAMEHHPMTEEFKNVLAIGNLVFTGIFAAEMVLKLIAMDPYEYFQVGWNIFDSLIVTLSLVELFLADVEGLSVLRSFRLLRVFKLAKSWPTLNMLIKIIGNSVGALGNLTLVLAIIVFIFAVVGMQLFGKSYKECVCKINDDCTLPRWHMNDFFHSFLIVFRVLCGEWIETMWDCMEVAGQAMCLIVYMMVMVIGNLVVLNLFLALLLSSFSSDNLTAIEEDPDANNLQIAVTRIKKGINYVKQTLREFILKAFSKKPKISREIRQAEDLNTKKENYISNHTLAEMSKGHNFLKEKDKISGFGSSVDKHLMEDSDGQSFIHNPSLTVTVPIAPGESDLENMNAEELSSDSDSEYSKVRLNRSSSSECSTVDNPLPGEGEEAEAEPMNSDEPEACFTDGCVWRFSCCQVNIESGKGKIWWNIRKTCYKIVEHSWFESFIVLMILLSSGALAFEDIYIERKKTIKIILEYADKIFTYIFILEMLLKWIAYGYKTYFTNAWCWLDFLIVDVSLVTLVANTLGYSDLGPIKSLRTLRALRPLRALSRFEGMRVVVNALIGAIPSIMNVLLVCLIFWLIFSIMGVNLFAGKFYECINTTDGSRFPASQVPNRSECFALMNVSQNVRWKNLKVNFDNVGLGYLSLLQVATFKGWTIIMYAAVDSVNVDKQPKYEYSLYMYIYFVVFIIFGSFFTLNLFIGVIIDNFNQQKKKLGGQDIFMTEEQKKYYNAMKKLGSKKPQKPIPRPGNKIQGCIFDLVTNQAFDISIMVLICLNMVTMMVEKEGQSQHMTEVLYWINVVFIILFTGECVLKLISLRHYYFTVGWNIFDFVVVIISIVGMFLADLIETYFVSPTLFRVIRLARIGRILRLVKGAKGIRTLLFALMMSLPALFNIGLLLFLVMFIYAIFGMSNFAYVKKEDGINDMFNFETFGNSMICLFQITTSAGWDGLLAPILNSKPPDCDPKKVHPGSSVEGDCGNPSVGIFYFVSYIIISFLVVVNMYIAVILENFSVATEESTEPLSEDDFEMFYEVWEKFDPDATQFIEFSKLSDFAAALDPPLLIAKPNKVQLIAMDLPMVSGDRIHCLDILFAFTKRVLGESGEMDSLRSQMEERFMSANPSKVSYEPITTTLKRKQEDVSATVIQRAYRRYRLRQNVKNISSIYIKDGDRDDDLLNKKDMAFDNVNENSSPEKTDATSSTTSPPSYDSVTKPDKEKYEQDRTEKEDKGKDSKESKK
- ASSAY REMARKS: E-VIPR optical membrane potential assay with electrical stimulation
- MEASUREMENT CONTEXT: active against one or more sodium channels; Table 3 does not name the assay or NaV subtype; read-out: Binned Activity Data (IC50)
pIC50: −log10 of the molar value.
For each entry below, report its pIC50 value.

CHEMICAL SMILES: Cc1cc(C(=O)N2CCC3(CC2)c2ccc(C(=O)C(F)(F)F)n2C[C@H](C)N3C)ccc1O
DATA VALUE: ≥ 5.70
--
CHEMICAL SMILES: CC1(C)CNC2(CCN(C(=O)c3ccc(S(=O)(=O)NC4CC4)cc3)CC2)c2ccc(C(F)(F)F)n21
DATA VALUE: < 5.30
--
CHEMICAL SMILES: CCC(=O)c1ccc2n1CCN(C)C21CCN(C(=O)c2ccc(C(C)(C)O)c(C)c2)CC1
DATA VALUE: ≥ 5.70
--
CHEMICAL SMILES: CN1CCn2c(C(F)(F)F)cc(F)c2C12CCN(C(=O)c1ccc(C(C)(C)O)c(F)c1)CC2
DATA VALUE: ≥ 5.70
--
CHEMICAL SMILES: CCCCc1ccc(C(=O)N2CCC3(CC2)c2ccc(C(=O)C(F)(F)F)n2CCN3C)cc1
DATA VALUE: ≥ 5.70

Please state pIC50 for every compound in the list that follows.
1. CN1CCn2c(C(=O)C(F)(F)F)ccc2C12CCN(C(=O)c1ccc(-c3ccccc3)c(O)c1)CC2
2. CN1CCn2c(C(F)(F)F)cc(F)c2C12CCN(C(=O)c1ccc(CC(C)(C)O)cc1)CC2
3. COc1cc(C(=O)N2CCC3(CC2)NCCn2c(C(F)(F)F)ccc23)ccc1O
4. COc1cc(C(=O)N2CCC3(CC2)NC(C)(C)Cn2c(C(=O)C(F)(F)F)ccc23)ccc1OCCC(C)C
5. CC1(C)Cn2c(C(=O)C(F)(F)F)ccc2C2(CCN(C(=O)c3ccc(S(=O)(=O)C(F)(F)F)cc3)CC2)N1

Reply:
1: 5.30 to 5.70; 2: ≥ 5.70; 3: < 5.30; 4: ≥ 5.70; 5: ≥ 5.70

Give measured pIC50 for every item shown.
1. CCS(=O)(=O)c1ccc(C(=O)N2CCC3(CC2)c2ccc(C(F)(F)F)n2CCN3C)cc1C
2. CC(C)Oc1ccc(C(=O)N2CCC3(CC2)c2cc(C(=O)C(F)(F)F)cn2C(C)(C)CN3C)cc1Cl
3. CC(=O)c1ccc2n1CCN(C)C21CCN(C(=O)c2cccc3cccnc23)CC1
4. CN1CCn2c(C(=O)C(F)(F)F)ccc2C12CCN(C(=O)c1ccc(-c3ccccc3)c(F)c1)CC2

Reply:
1: ≥ 5.70; 2: < 5.30; 3: < 5.30; 4: ≥ 5.70

Task item: Lookup: pIC50 / human NaV subtype, like NaV 1.7 (Homo sapiens, UniProt Q15858) / `COc1ccc(C(=O)N2CCC3(CC2)c2ccc(C(=O)c4ccccc4)n2CCN3C)cc1C`
Reply: 5.30 to 5.70

* * *

- SYSTEM NAME: human NaV subtype, like NaV 1.7 (Homo sapiens)
- ASSAY REMARKS: E-VIPR optical membrane potential assay with electrical stimulation
- Assay type: cell-based
- MEASUREMENT CONTEXT: active against one or more sodium channels; Table 3 does not name the assay or NaV subtype; read-out: Binned Activity Data (IC50)
pIC50: −log10 of the molar value.
RECORDED ENDPOINT: pIC50

Count: 6. Required value per item: pIC50.
1. Cc1c(O)cccc1C(=O)N1CCC2(CC1)c1ccc(C(=O)C(F)(F)F)n1CCN2C [Compound 714]
2. Cc1cc(C(=O)N2CCC3(CC2)c2ccc(C(=O)C(C)(C)C)n2CCN3C)ccc1OCCCO [Compound 711]
3. CN1CCn2c(C(=O)C(F)(F)F)ccc2C12CCN(C(=O)c1ccc(OC3CCOCC3)cc1)CC2 [Compound 645]
4. CN1CCn2c(C(=O)C(F)(F)F)ccc2C12CCN(C(=O)c1ccc(C(C)(C)O)c(F)c1)CC2 [Compound 575]
5. CN1CCn2c(C(=O)C(F)(F)F)ccc2C12CCN(C(=O)c1ccc(Cl)c(O)c1)CC2 [Compound 271]
6. CN1CCn2c(Cl)ccc2C12CCN(C(=O)c1ccc(S(=O)(=O)NC3CC3)cc1)CC2 [Compound 352]

Reply:
1. < 5.30
2. ≥ 5.70
3. ≥ 5.70
4. ≥ 5.70
5. < 5.30
6. 5.30 to 5.70

I'm hoping you can list pIC50 for every molecule here, please.
1. Cc1cc(C(=O)N2CCC3(CC2)c2ccc(C(F)(F)F)n2CCN3C(=O)N(C)C)ccc1OC(C)C [Compound 138]
2. CN1CCn2c(Cl)ccc2C12CCN(C(=O)c1ccc(Oc3ccccc3)cc1)CC2 [Compound 406]

Reply:
≥ 5.70
5.30 to 5.70
